# ASSAY_OVERVIEW: physchem
# MEASUREMENT_CONTEXT: buffer, pH 7.2
Structures can show the parent of a compound that is named as a salt.
half-life reference
READOUT_LABEL: half-life

Cl.Cn1c(CCCC(=O)O)nc2ccc(N(CCCl)CCCl)cc21 [iso-bendamustine-HCl] = 11.6 min
Cn1c(CCCC(=O)O)nc2cc(N(CCCl)CCCl)ccc21 [bendamustine-HCl, reference compound] = 10.8 min
CCOC(=O)CCCc1nc2ccc(N(CCCl)CCCl)cc2n1C [iso-bendamustine ethyl ester] = 15.3 min
